Target: Human immunodeficiency virus type 1 reverse transcriptase (Human immunodeficiency virus 1, UniProt Q72547, Y181C)
Experiment: Inhibition of HIV1 reverse transcriptase Y181C mutant polymerase activity using [3H]TTP and poly(rA)-oligo(dT)16 substrate incubated for 20 mins by liquid scintillation spectrometry
pIC50: −log10 of the molar value.
READOUT KIND: pIC50

INSERT INTO measurements (smiles_entry, endpoint_value) VALUES
  ('NS(=O)(=O)c1ccc(-c2ccc(Cc3ccc4c(c3)CC(=O)N(O)C4=O)cc2)cc1', 6.52);

###

Target: Human immunodeficiency virus type 1 reverse transcriptase (Human immunodeficiency virus 1, UniProt Q72547, K103N/L100I)
Test: Inhibition of HIV1 reverse transcriptase L100I/K103N mutant associated RNase H domain activity assessed as reduction in internal cleavage using HTS-1 RNA/DNA duplex substrate by fluorescence assay
pIC50: −log10 of the molar value.
READOUT KIND: pIC50

INSERT INTO measurements (smiles_entry, endpoint_value) VALUES
  ('NS(=O)(=O)c1ccc(-c2ccc(Cc3ccc4c(c3)CC(=O)N(O)C4=O)cc2)cc1', 6.40);

###

// each record: one item and its IC50 for Human immunodeficiency virus type 1 integrase (Human immunodeficiency virus 1)
READOUT KIND: IC50

INSERT INTO results (smiles_entry, target_or_system, endpoint_value) VALUES
  ('O=C1Cc2cc(Cc3ccc(C(F)(F)F)cc3)ccc2C(=O)N1O', 'Human immunodeficiency virus type 1 integrase (Human immunodeficiency virus 1)', '> 100 µM'),
  ('N#Cc1ccc(-c2ccc(Cc3ccc4c(c3)CC(=O)N(O)C4=O)cc2)cc1', 'Human immunodeficiency virus type 1 integrase (Human immunodeficiency virus 1)', '> 100 µM'),
  ('O=C1Cc2cc(Cc3ccccc3)ccc2C(=O)N1O', 'Human immunodeficiency virus type 1 integrase (Human immunodeficiency virus 1)', '3.8 µM'),
  ('COc1ccc(-c2ccc(Cc3ccc4c(c3)CC(=O)N(O)C4=O)cc2)cc1F', 'Human immunodeficiency virus type 1 integrase (Human immunodeficiency virus 1)', '> 100 µM'),
  ('NS(=O)(=O)c1ccc(-c2ccc(Cc3ccc4c(c3)CC(=O)N(O)C4=O)cc2)cc1', 'Human immunodeficiency virus type 1 integrase (Human immunodeficiency virus 1)', '3.6 µM'),
  ('O=C1Cc2cc(Cc3ccc(F)cc3)ccc2C(=O)N1O', 'Human immunodeficiency virus type 1 integrase (Human immunodeficiency virus 1)', '36 µM'),
  ('O=C1Cc2cc(Cc3ccc(-c4cccs4)cc3)ccc2C(=O)N1O', 'Human immunodeficiency virus type 1 integrase (Human immunodeficiency virus 1)', '> 100 µM'),
  ('O=C1Cc2cc(Cc3ccc(-c4ccccc4)cc3)ccc2C(=O)N1O', 'Human immunodeficiency virus type 1 integrase (Human immunodeficiency virus 1)', '> 100 µM'),
  ('O=C1Cc2cc(Cc3ccc(C4CC4)cc3)ccc2C(=O)N1O', 'Human immunodeficiency virus type 1 integrase (Human immunodeficiency virus 1)', '3.8 µM'),
  ('O=C1Cc2cc(Cc3ccc(-c4ccc(F)cc4F)cc3)ccc2C(=O)N1O', 'Human immunodeficiency virus type 1 integrase (Human immunodeficiency virus 1)', '> 100 µM'),
  ('O=C1Cc2cc(Cc3ccc(Cl)cc3)ccc2C(=O)N1O', 'Human immunodeficiency virus type 1 integrase (Human immunodeficiency virus 1)', '4.4 µM'),
  ('O=C1Cc2cc(Cc3ccc(-c4ccc(F)cc4)cc3)ccc2C(=O)N1O', 'Human immunodeficiency virus type 1 integrase (Human immunodeficiency virus 1)', '> 100 µM');
